protocol summary: protein stability index of a GFP-peptide fusion (yeast GPS) (PSI 1-4); higher = more stable; sorted into four equal gates, so the index is relative within each strain
experimental setup: doa10∆
property name: protein stability index
Give the figure by itself; no unit, no explanation.

# input sequence: SEENIGSGLLKLSEIIL [SWI1] ; wanted: its protein stability index
3.2

So what's the measured protein stability index for this one? TDRITRLFIKPGQKMSL [BRN1]
3.22

# get_value(readout='protein stability index', item= MLPGSSNGGGKVKPIRG [RPO31] )
3

Consider the sequence shown here: QIPVYDTFDGSDLRVLS [FAS1] What is its recorded protein stability index?
2.7

Consider the sequence shown here: NMMNQVGEEETSQKMKK [SRP54] What is its recorded protein stability index?
3.33

Could you share which protein stability index value was measured for YTVNVVDVFAMPQSGTG [RPN11] ?
3.08

Others:
Fill in the blank: the reported protein stability index of NMGSLLGLCLVIQIVTG [COB] is ____.
2.67

Name the recorded protein stability index for HIQGFPTLGERLDNLQD [DSN1] .
3.34

Value lookup for protein stability index; key = LINGHRAPQQSVLQLFQ [SMC2]
3

Which protein stability index reading was recorded for the sequence GPRAVLTRQPTEGRSRD [RET1] ?
3.43

// returns reported protein stability index for input SGRTVISPDPNLSIDEV [RPO31]
2.4
